Measured pIC50 by item
Molecular target: PAR4 (Homo sapiens (Human))
Sequence (Q96RI0 18-385): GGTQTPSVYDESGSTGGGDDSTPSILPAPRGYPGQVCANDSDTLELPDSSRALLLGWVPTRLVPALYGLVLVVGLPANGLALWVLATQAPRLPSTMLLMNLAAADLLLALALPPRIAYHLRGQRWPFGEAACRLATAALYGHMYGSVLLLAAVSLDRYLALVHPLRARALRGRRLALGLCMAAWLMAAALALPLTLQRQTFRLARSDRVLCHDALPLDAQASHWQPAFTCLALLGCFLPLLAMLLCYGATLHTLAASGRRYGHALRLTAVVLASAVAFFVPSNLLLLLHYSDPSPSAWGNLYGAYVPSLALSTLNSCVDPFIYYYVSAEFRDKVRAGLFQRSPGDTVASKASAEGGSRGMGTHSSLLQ
Test: FLIPR assay in PAR4-expressing HEK293 cells (PAR4 antagonist activity, calcium mobilization)
Assay type: cell-based
Conditions: FLIPR assay as described in Example A
// returns pIC50 (minus log10 of molar concentration), number only

// below: answered compounds
FC(F)C(F)(F)c1nn2cc(-c3cc4ccccc4o3)nc2s1 : 6.34
COc1nn2cc(-c3cc4c(OC)ccc(OC)c4o3)nc2s1 : 7.97
COc1cc(OCc2cccc(OCc3cc(F)c(F)c(F)c3)c2)c2cc(-c3cn4nc(OC)sc4n3)oc2c1 : 8.35
CSc1nn2cc(-c3nc4ccc(OCCN5CCCC5)cc4o3)nc2s1 : 6.69
CSc1nn2cc(-c3nc4ccc(OCc5cc(F)cc(F)c5)cc4o3)nc2s1 : 6.47

The reported value for CC(F)c1nn2cc(-c3cc4c(OCc5ccccc5)cccc4o3)nc2s1 (stereo not drawn) in terms of pIC50 is 6.64

The reported value for COc1cc(OCc2cccc(OCc3cccc(Oc4ccccc4)c3)c2)c2cc(-c3cn4nc(OC)sc4n3)oc2c1 in terms of pIC50 is 8.30

The reported value for COc1nn2cc(-c3cc4c(O)c(Cc5ccccc5)c(OC)cc4o3)nc2s1 in terms of pIC50 is 7.01

The reported value for COc1cc(OCc2cccc(OCc3ccc(OCc4ccccc4)cc3)c2)c2cc(-c3cn4nc(OC)sc4n3)oc2c1 in terms of pIC50 is 6.78

The reported value for CSc1nn2cc(-c3nc4c(OC(F)(F)F)cccc4s3)nc2s1 in terms of pIC50 is 6.38

The reported value for COc1nn2cc(-c3cc4c(OCc5ccccc5)cccc4o3)nc2s1 in terms of pIC50 is 7.61

The reported value for COc1cc2oc(-c3cn4nc(SC)sc4n3)cc2cc1Br in terms of pIC50 is 8.34

The reported value for COc1cc(OC)c2cc(-c3cn4nc(SC)sc4n3)oc2c1 in terms of pIC50 is 8.91

The reported value for CSc1nn2cc(-c3nc4ccc(OC(F)(F)F)cc4s3)nc2s1 in terms of pIC50 is 6.72

The reported value for COc1cc(OCc2cccc(OCc3cccc(F)c3F)c2)c2cc(-c3cn4nc(OC)sc4n3)oc2c1 in terms of pIC50 is 9.14

The reported value for CCc1cc(OCc2cccc(OCc3ccccc3)c2)c2cc(-c3cn4nc(OC)sc4n3)oc2c1 in terms of pIC50 is 8.34

The reported value for COc1cc(OCc2cccc(OCc3ccccc3)c2)c2nc(-c3cn4nc(SC)sc4n3)oc2c1 in terms of pIC50 is 9.07

The reported value for COc1cc(OCc2ccccc2)c2cc(-c3cn4nc(SC)sc4n3)oc2c1 in terms of pIC50 is 8.39
